Source: patent US9958439B2

condition-summary: Cellulobiose 5-0.019 mg/ml, 3 μM probe, probe-specific excitation λ, emission 545 nm

[
  {
    "molecule": "Cl.Cl.c1csc(-c2cc(CCn3ccnc3)c(-c3ccc(-c4sc(-c5cccs5)cc4CCn4ccnc4)s3)s2)c1 [pHTIm, penta Hydrogen Thiophene Imidazole]",
    "RFU change (Correlation analysis)": "Unclear"
  },
  {
    "molecule": "NCCCC[C@H](NC(=O)Cc1cc(-c2cccs2)sc1-c1ccc(-c2sc(-c3cccs3)cc2CC(=O)N[C@@H](CCCCN)C(=O)[O-])s1)C(=O)[O-].[Na+].[Na+]",
    "RFU change (Correlation analysis)": "Unclear"
  }
]

----------
condition-summary: Amylose 5-0.019 mg/ml, 3 μM probe, probe-specific excitation λ, emission 545 nm
Protocol: 3 μM of each probe was applied to serial two fold dilutions of the carbohydrate of which the concentration shown here are 5 mg/ml (_.), 2.5 mg/ml (. . . ) 1.25 mg/ml (__) and 0 mg/ml (_). The excitation spectrum of the probe was analyzed for wavelengths 300-500 nm with emission read at 545 nm. 3 μM of each probe was applied to serial two fold dilutions of the carbohydrate. Respective probes were excited at wavelengths unique to each probe (specified in figure), and emission was read at 545 nm. […]

[
  {
    "compound": "Cl.Cl.NCCc1cc(-c2cccs2)sc1-c1ccc(-c2sc(-c3cccs3)cc2CCN)s1 [pHTEA, penta Hydrogen Thiophene Ethanol Amine]",
    "RFU change (Correlation analysis)": "Decreases"
  },
  {
    "compound": "O=C([O-])C[C@H](NC(=O)Cc1cc(-c2cccs2)sc1-c1ccc(-c2sc(-c3cccs3)cc2CC(=O)N[C@@H](CC(=O)[O-])C(=O)[O-])s1)C(=O)[O-].[Na+].[Na+].[Na+].[Na+]",
    "RFU change (Correlation analysis)": "Increases"
  },
  {
    "compound": "Cl.Cl.O=C(Cc1cc(-c2cccs2)sc1-c1ccc(-c2sc(-c3cccs3)cc2CC(=O)NCCc2c[nH]cn2)s1)NCCc1c[nH]cn1",
    "RFU change (Correlation analysis)": "Decreases"
  },
  {
    "compound": "O=C([O-])CC[C@H](NC(=O)Cc1cc(-c2cccs2)sc1-c1ccc(-c2sc(-c3cccs3)cc2CC(=O)N[C@@H](CCC(=O)[O-])C(=O)[O-])s1)C(=O)[O-].[Na+].[Na+].[Na+].[Na+]",
    "RFU change (Correlation analysis)": "Increases"
  },
  {
    "compound": "Cl.Cl.N=C(N)NCCC[C@H](NC(=O)Cc1cc(-c2cccs2)sc1-c1ccc(-c2sc(-c3cccs3)cc2CC(=O)N[C@@H](CCCNC(=N)N)C(=O)O)s1)C(=O)O",
    "RFU change (Correlation analysis)": "Unclear"
  },
  {
    "compound": "NCCCC[C@H](NC(=O)Cc1cc(-c2cccs2)sc1-c1ccc(-c2sc(-c3cccs3)cc2CC(=O)N[C@@H](CCCCN)C(=O)[O-])s1)C(=O)[O-].[Na+].[Na+]",
    "RFU change (Correlation analysis)": "Increases"
  },
  {
    "compound": "O=C(Cc1cc(-c2cccs2)sc1-c1ccc(-c2sc(-c3cccs3)cc2CC(=O)N[C@@H](Cc2ccc([O-])cc2)C(=O)[O-])s1)N[C@@H](Cc1ccc([O-])cc1)C(=O)[O-].[Na+].[Na+].[Na+].[Na+]",
    "RFU change (Correlation analysis)": "Unclear"
  },
  {
    "compound": "Cl.Cl.c1csc(-c2cc(CCn3ccnc3)c(-c3ccc(-c4sc(-c5cccs5)cc4CCn4ccnc4)s3)s2)c1 [pHTIm, penta Hydrogen Thiophene Imidazole]",
    "RFU change (Correlation analysis)": "Decreases"
  }
]

----------
condition-summary: chitin concentration vs RFU, linear regression
parameter: Linear relationship

[
  {
    "compound": "Cl.Cl.NCCc1cc(-c2cccs2)sc1-c1ccc(-c2sc(-c3cccs3)cc2CCN)s1 [pHTEA, penta Hydrogen Thiophene Ethanol Amine]",
    "parameter": "Linear relationship",
    "experimental-result": "Significant"
  },
  {
    "compound": "NCCCC[C@H](NC(=O)Cc1cc(-c2cccs2)sc1-c1ccc(-c2sc(-c3cccs3)cc2CC(=O)N[C@@H](CCCCN)C(=O)[O-])s1)C(=O)[O-].[Na+].[Na+] [pHTA-Lys]",
    "parameter": "Linear relationship",
    "experimental-result": "Significant"
  },
  {
    "compound": "Cl.Cl.N=C(N)NCCC[C@H](NC(=O)Cc1cc(-c2cccs2)sc1-c1ccc(-c2sc(-c3cccs3)cc2CC(=O)N[C@@H](CCCNC(=N)N)C(=O)O)s1)C(=O)O [pHTA-Arg]",
    "parameter": "Linear relationship",
    "experimental-result": "Significant"
  }
]

----------
condition-summary: Chondroitin Sulfate A concentration vs RFU, linear regression

[
  {
    "compound": "Cl.Cl.c1csc(-c2cc(CCn3ccnc3)c(-c3ccc(-c4sc(-c5cccs5)cc4CCn4ccnc4)s3)s2)c1 [pHTIm, penta Hydrogen Thiophene Imidazole]",
    "Linear relationship": "Significant"
  },
  {
    "compound": "NCCCC[C@H](NC(=O)Cc1cc(-c2cccs2)sc1-c1ccc(-c2sc(-c3cccs3)cc2CC(=O)N[C@@H](CCCCN)C(=O)[O-])s1)C(=O)[O-].[Na+].[Na+] [pHTA-Lys]",
    "Linear relationship": "Significant"
  },
  {
    "compound": "Cl.Cl.N=C(N)NCCC[C@H](NC(=O)Cc1cc(-c2cccs2)sc1-c1ccc(-c2sc(-c3cccs3)cc2CC(=O)N[C@@H](CCCNC(=N)N)C(=O)O)s1)C(=O)O [pHTA-Arg]",
    "Linear relationship": "Significant"
  }
]

----------
condition-summary: cellulobiose concentration vs RFU, linear regression
Experimental: 3 μM of each probe was applied to serial two fold dilutions of the carbohydrate of which the concentration shown here are 5 mg/ml (_.), 2.5 mg/ml (. . . ) 1.25 mg/ml (__) and 0 mg/ml (_). The excitation spectrum of the probe was analyzed for wavelengths 300-500 nm with emission read at 545 nm. 3 μM of each probe was applied to serial two fold dilutions of the carbohydrate. Respective probes were excited at wavelengths unique to each probe (specified in figure), and emission was read at 545 nm. […]

[
  {
    "compound": "O=C([O-])CC[C@H](NC(=O)Cc1cc(-c2cccs2)sc1-c1ccc(-c2sc(-c3cccs3)cc2CC(=O)N[C@@H](CCC(=O)[O-])C(=O)[O-])s1)C(=O)[O-].[Na+].[Na+].[Na+].[Na+] [pHTA-Glu]",
    "Quality of Gradient": "Positive"
  },
  {
    "compound": "O=C([O-])C[C@H](NC(=O)Cc1cc(-c2cccs2)sc1-c1ccc(-c2sc(-c3cccs3)cc2CC(=O)N[C@@H](CC(=O)[O-])C(=O)[O-])s1)C(=O)[O-].[Na+].[Na+].[Na+].[Na+] [pHTA-Asp]",
    "Quality of Gradient": "Positive"
  }
]

----------
condition-summary: amylose concentration vs RFU, linear regression
parameter: Quality of Gradient

[
  {
    "compound": "Cl.Cl.O=C(Cc1cc(-c2cccs2)sc1-c1ccc(-c2sc(-c3cccs3)cc2CC(=O)NCCc2c[nH]cn2)s1)NCCc1c[nH]cn1",
    "parameter": "Quality of Gradient",
    "experimental-result": "Negative"
  },
  {
    "compound": "Cl.Cl.N=C(N)NCCC[C@H](NC(=O)Cc1cc(-c2cccs2)sc1-c1ccc(-c2sc(-c3cccs3)cc2CC(=O)N[C@@H](CCCNC(=N)N)C(=O)O)s1)C(=O)O",
    "parameter": "Quality of Gradient",
    "experimental-result": "Horizontal"
  },
  {
    "compound": "O=C([O-])CC[C@H](NC(=O)Cc1cc(-c2cccs2)sc1-c1ccc(-c2sc(-c3cccs3)cc2CC(=O)N[C@@H](CCC(=O)[O-])C(=O)[O-])s1)C(=O)[O-].[Na+].[Na+].[Na+].[Na+]",
    "parameter": "Quality of Gradient",
    "experimental-result": "Horizontal"
  },
  {
    "compound": "O=C(Cc1cc(-c2cccs2)sc1-c1ccc(-c2sc(-c3cccs3)cc2CC(=O)N[C@@H](Cc2ccc([O-])cc2)C(=O)[O-])s1)N[C@@H](Cc1ccc([O-])cc1)C(=O)[O-].[Na+].[Na+].[Na+].[Na+]",
    "parameter": "Quality of Gradient",
    "experimental-result": "Horizontal"
  },
  {
    "compound": "Cl.Cl.c1csc(-c2cc(CCn3ccnc3)c(-c3ccc(-c4sc(-c5cccs5)cc4CCn4ccnc4)s3)s2)c1 [pHTIm, penta Hydrogen Thiophene Imidazole]",
    "parameter": "Quality of Gradient",
    "experimental-result": "Negative"
  },
  {
    "compound": "Cl.Cl.NCCc1cc(-c2cccs2)sc1-c1ccc(-c2sc(-c3cccs3)cc2CCN)s1 [pHTEA, penta Hydrogen Thiophene Ethanol Amine]",
    "parameter": "Quality of Gradient",
    "experimental-result": "Negative"
  },
  {
    "compound": "O=C([O-])C[C@H](NC(=O)Cc1cc(-c2cccs2)sc1-c1ccc(-c2sc(-c3cccs3)cc2CC(=O)N[C@@H](CC(=O)[O-])C(=O)[O-])s1)C(=O)[O-].[Na+].[Na+].[Na+].[Na+]",
    "parameter": "Quality of Gradient",
    "experimental-result": "Horizontal"
  }
]
